Tested on: pHCA
Assay: Percent conversion of substrate by E. coli cells expressing sulfotransferases
Type: cell-based, Escherichia coli
Details: 100 μM pHCA, M9 medium, overnight 37° C.
Measure: percent conversion of pHCA

INSERT INTO measurements (molecule, assay_result) VALUES
  ('SULT1E1 Gallus gallus domesticus: aryl sulfotransferase SULT1E1 Gallus gallus domesticus (SEQ ID NO: 6) (protein, listed as Gallus gallus) MGNDEVIRQDLGCLYDIPLYKCFVAGWPQVEAFQARPDDLLIATYPKSGTTWLSEILDAIYHDGDLEKCRRDAIYNRVPFLEMKAPGILSGVEQLEKIPSPRLVKTHLPVHLLPASFQEKDCKVIYMARNAKDVVISYYYFYQMAKIHPDPGTLSEFLQAFMDGKVAYGSWYKHVKGWWEKRHEKRLLYLFYEDMKKDPRREIQKILQFLGKEVAEETVARILHHTSFQEMKKNPATNYETMPTELMDHSLSPFMRKGISGDWANHFTVAQNERFDQHYQQQMAGSDLCFQMEA', '17%');
